FYI, the data here is from patent US20170182070A1.

Test: Population pharmacokinetic model of doxycycline plasma concentrations, pooled phase 1 data (Example 8)
Format: in vivo, human
Details: human, plasma, oral; final model parameter estimate; read-out: COVFEDF, Effect of food on relative bioavailability
Readout name: Fed-state decrease in relative bioavailability (%)
Answer with a number only, understood to be in %.

For C[C@H]1c2cccc(O)c2C(=O)C2=C(O)[C@]3(O)C(=O)C(C(N)=O)=C(O)[C@@H](N(C)C)[C@@H]3[C@@H](O)[C@@H]21 [doxycycline] , what is its reported Fed-state decrease in relative bioavailability?
10.5
